# System: HepG2 cells
# assay info: Hepatoprotective activity, APAP-induced HepG2 cell injury model (CCK-8)
# Assay type: cell-based
# condition set: Homo sapiens; 20 μM compound, APAP 6 mM, 48 h, HepG2; APAP model 68.24 ± 1.34%; n = 3, mean ± SD
measure name: viability at 20 µM (%)
// return numeric value only (unit: %, not printed)

viability at 20 µM for "O=C1C[C@@H](c2ccc(O)cc2)Oc2cc(O)cc(O)c21" ? 83.7

viability at 20 µM for "O=c1c(O)c(-c2ccc(O)cc2)oc2cc(O)cc(O)c12" ? 87.1

viability at 20 µM for "C[C@@H]1O[C@@H](Oc2c(-c3ccc(O)c(O)c3)oc3c(O)c(O)c(O)c(O)c3c2=O)[C@H](O)[C@H](O)[C@H]1O" ? 88.5

viability at 20 µM for "O=c1c(O)c(-c2ccc(O)c(O)c2)oc2cc(O)cc(O)c12" ? 84.9

viability at 20 µM for O=C1c2c(O)cc(O)cc2OC(c2ccc(O)c(O)c2)C1O (stereo not shown) ? 85.4

viability at 20 µM for "O=C(O[C@H]1C(=O)c2c(cc(O)c(O)c2O)O[C@@H]1c1cc(O)c(O)c(O)c1)c1cc(O)c(O)c(O)c1" ? 84.9

viability at 20 µM for COC(=O)c1cc(OC)c2c(c1-c1c(CO)cc(OC)c3c1OCO3)OCO2 [bicyclol, reference compound] ? 83
